- Run description: protein stability index of a GFP-peptide fusion (GPS, HEK-293T) (PSI 1-6); higher = more stable;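 also: 24-mer peptide tiles fused after GFP, lentivirally expressed, FACS-sorted into six equal bins by GFP/DsRed ratio, decoded by Illumina sequencing, PSI is the read-weighted mean bin number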
- Experimental setup: treatment: DMSO; c terminus: a fixed tail appended
Listing of entries alongside the reported protein stability index.
Reported endpoint: protein stability index

INSERT INTO results (item_sequence, reported_endpoint, measured) VALUES
  ('ELTSVTAWMLCKLLDKAGVPPGVV [ALDH8A1]', 'protein stability index', 2.98),
  ('CLVFELLSYNLYDLLRNTHFRGVS [DYRK1B]', 'protein stability index', 2.95),
  ('LLCLRAVTHREGAPPLPGAESFPG [PLEKHN1]', 'protein stability index', 3.08);
